- Test system: HCC1143
- TEST_METHOD_NOTES: normalised response (% of control), CellTiter-Glo; higher = more viable cells (100 = DMSO, 0 = benzethonium chloride kill control)
- EXPERIMENTAL_SETUP: incubation time: 72 h

{"COMPOUND": "Cn1cncc1[C@@](N)(c1ccc(Cl)cc1)c1ccc2c(c1)c(-c1cccc(Cl)c1)cc(=O)n2C [Tipifarnib] (100 nM)", "TGT": "HCC1143", "normalised response [%]": 88.8}
{"COMPOUND": "Cc1ccc(NC(=O)c2ccc(CN3CCN(C)CC3)cc2)cc1Nc1nccc(-c2cccnc2)n1 [Imatinib] (100 nM)", "TGT": "HCC1143", "normalised response [%]": 104}
{"COMPOUND": "CN1CCN(CCOc2cc(OC3CCOCC3)c3c(Nc4c(Cl)ccc5c4OCO5)ncnc3c2)CC1 [Saracatinib] (100 nM)", "TGT": "HCC1143", "normalised response [%]": 96.1}
{"COMPOUND": "COc1ccccc1S(=O)(=O)Nc1ccc2c(c1)CN(C)C(=O)N2 [PFI-1] (100 nM)", "TGT": "HCC1143", "normalised response [%]": 100}
{"COMPOUND": "CO[C@H]1C[C@@H]2CC[C@@H](C)[C@@](O)(O2)C(=O)C(=O)N2CCCC[C@H]2C(=O)O[C@H]([C@H](C)C[C@@H]2CC[C@@H](OCCO)[C@H](OC)C2)CC(=O)[C@H](C)/C=C(\\C)[C@@H](O)[C@@H](OC)C(=O)[C@H](C)C[C@H](C)/C=C/C=C/C=C/1C [Everolimus] (1 nM)", "TGT": "HCC1143", "normalised response [%]": 72.4}
{"COMPOUND": "CC(C)c1c(C(=O)Nc2ccccc2)c(-c2ccccc2)c(-c2ccc(F)cc2)n1CC[C@@H](O)C[C@@H](O)CC(=O)O [Atorvastatin] (100 nM)", "TGT": "HCC1143", "normalised response [%]": 103}
{"COMPOUND": "CC[C@]1(O)C[C@H]2CN(CCc3c([nH]c4ccccc34)[C@@](C(=O)OC)(c3cc4c(cc3OC)N(C=O)[C@H]3[C@@](O)(C(=O)OC)[C@H](OC(C)=O)[C@]5(CC)C=CCN6CC[C@]43[C@@H]65)C2)C1 [Vincristine] (10 nM)", "TGT": "HCC1143", "normalised response [%]": 53.5}
